Source of measurements: patent US20190359653A1

Target: T1, hFZD8 CRD-Fc (human, UniProt Q9H461 28-158, limits assumed)
T1 construct: domain: CRD; bought (R&D Systems); not shown: Fc part
T1 sequence (looked up): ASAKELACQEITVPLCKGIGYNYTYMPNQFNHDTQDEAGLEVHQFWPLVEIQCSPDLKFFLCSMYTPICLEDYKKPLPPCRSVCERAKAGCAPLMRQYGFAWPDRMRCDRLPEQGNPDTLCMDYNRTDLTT
Experiment: spot phage ELISA
Reported signal:noise ratio values follow for various binders
The answer should be a number; do not append a unit.

Known signal:noise ratio results, listed for orientation:
binder	reported_result
FELLLDLGDLIRLW [SEQ ID NO 8]	2
IWFKGRFVEFSSLV (also called Fz7-17) [SEQ ID NO 23]	1
LSSGKKVSSYWFNFWF [SEQ ID NO 30]	1

Ask: Please list signal:noise ratio recorded for the binder EHDLLLRAMNSFVLIF [SEQ ID NO 25]
Reply: 1
